This section presents compounds with their documented selectivity ratio values.
- assay_overview: Selectivity index, ratio of CC50 for green monkey Vero-B cells to EC50 for Yellow fever virus infected in green monkey Vero-B cells
- Assay type: toxicity, cell-based
- test_settings: read-out: Ratio CC50/EC50

structure_smiles_string | data_value
O=C(NCc1ccc(-c2ccncc2)cc1)c1nc[nH]c1C(=O)Nc1ccc(F)cc1 | 1
O=C(NCc1ccccc1-c1ccncc1)c1nc[nH]c1C(=O)Nc1ccc(F)cc1 | 31
O=C(NCc1ccc(-c2cccnc2)cc1)c1nc[nH]c1C(=O)Nc1ccc(F)cc1 | 10
Cc1ccc(NC(=O)c2nccnc2C(=O)NCc2ccc(-c3cccnc3)cc2)cc1 | 1.7

Consider the compound shown here: `O=C(Nc1ccc(F)cc1)c1nccnc1C(=O)Nc1ccccc1-c1ccncc1` What is its recorded selectivity ratio? 15

----------
- assay_overview: Selectivity index, ratio of CC50 for green monkey Vero-B cells to EC50 for Dengue virus infected in green monkey Vero-B cells
- Type: toxicity, cell-based
- test_settings: read-out: Ratio CC50/EC50
Tick rule met if selectivity ratio is 2 or greater. Tick rule not met if selectivity ratio is less than 2.

structure_smiles_string | class_name
Cc1ccc(NC(=O)c2nc[nH]c2C(=O)NCCc2ccc(F)cc2)c(-c2ccco2)c1 | rule met
O=C(NCc1ccccc1-c1ccncc1)c1nccnc1C(=O)Nc1ccc(F)cc1 | rule met
O=C(NCc1ccc(-c2ccsc2)cc1)c1nc[nH]c1C(=O)Nc1ccc(F)cc1 | rule not met
Cc1ccc(NC(=O)c2nc[nH]c2C(=O)Nc2ccc(F)cc2)c(-c2ccco2)c1 | rule not met
Cc1ccc(NC(=O)c2nc[nH]c2C(=O)NCc2ccccc2)c(-c2ccco2)c1 | rule not met
Cc1ccc(NC(=O)c2nc[nH]c2C(=O)Nc2ccc(F)cc2)c(-c2ccsc2)c1 | rule met

Determine whether measured selectivity ratio meets or exceeds 2 for `O=C(Nc1ccc(F)cc1)c1nccnc1C(=O)Nc1ccccc1-c1ccncc1` rule met

Is selectivity ratio for `Cc1ccc(NC(=O)c2[nH]cnc2C(=O)Nc2ccc(C)cc2-c2ccsc2)cc1` at or above 2? rule met

Confirm if selectivity ratio reported for the compound `O=C(NCc1ccc(-c2ccncc2)cc1)c1nccnc1C(=O)Nc1ccc(F)cc1` is 2 or above. rule met

----------
In this section, each of the compounds is paired with its reported selectivity ratio.
- assay_overview: Selectivity index, ratio of CC50 for green monkey Vero-B cells to EC50 for Dengue virus infected in green monkey Vero-B cells
- Format: toxicity, cell-based
- test_settings: read-out: Ratio CC50/EC50
// return a plain number; no unit text

Recorded selectivity ratio, per entry:
structure_smiles_string | outcome_measure | data_value
Cc1ccc(NC(=O)c2nccnc2C(=O)NCc2ccc(-c3cccnc3)cc2)cc1 | selectivity ratio | 17.2
Cc1ccc(NC(=O)c2nccnc2C(=O)Nc2ccc(C)cc2-c2cccnc2)cc1 | selectivity ratio | 4.5
Cc1ccc(NC(=O)c2nc[nH]c2C(=O)Nc2ccccc2)c(-c2ccsc2)c1 | selectivity ratio | 1

Given the entry `O=C(NCc1ccc(-c2cccnc2)cc1)c1nc[nH]c1C(=O)Nc1ccc(F)cc1` , report its measured selectivity ratio. 2.85

For the compound `O=C(NCc1ccc(-c2cccnc2)cc1)c1nccnc1C(=O)Nc1ccc(F)cc1` , what selectivity ratio is on record? 38.5

Reported selectivity ratio, compound `O=C(NCc1ccccc1-c1ccncc1)c1nc[nH]c1C(=O)Nc1ccc(F)cc1` : ____ 26

Using the record for `Cc1ccc(NC(=O)c2nccnc2C(=O)NCc2ccc(-c3ccncc3)cc2)cc1` , report its selectivity ratio. 4.5

What does the record list as selectivity ratio for `O=C(Nc1ccc(F)cc1)c1nccnc1C(=O)Nc1ccccc1-c1cccnc1` ? 5.2

Which selectivity ratio value belongs to `Cc1ccc(NC(=O)c2nccnc2C(=O)Nc2ccccc2-c2cccnc2)cc1` ? 8.8

Recorded selectivity ratio of `Cc1ccc(NC(=O)c2nc[nH]c2C(=O)Nc2ccc(F)cc2)c(-c2cc(C)n[nH]2)c1` , please. 48

What does the data say about its selectivity ratio? Entry: `Cc1ccc(NC(=O)c2nccnc2C(=O)Nc2ccc(F)cc2)c(-c2ccncc2)c1` 1

Find the recorded selectivity ratio belonging to `Cc1ccc(NC(=O)c2nccnc2C(=O)NCc2ccccc2-c2ccncc2)cc1` and report it. 2.04

Would you mind telling me what selectivity ratio value was observed for `Cc1ccc(NC(=O)c2[nH]cnc2C(=O)Nc2ccc(C)cc2-c2ccco2)cc1` ? 36.2

I have this compound here, `Cc1cnc(NC(=O)c2[nH]cnc2C(=O)Nc2ccccc2)c(-c2ccc(C)s2)c1` , and I need its recorded selectivity ratio. 0.22

Need selectivity ratio of `Cc1ccc(NC(=O)c2nccnc2C(=O)Nc2ccccc2-c2ccncc2)cc1` , thanks. 26

Cited source for all entries: ChEMBL document CHEMBL3352473
